// data source = patent US20220195023A1

Target: … (Plasmodium falciparum)
Experiment: SPR, antibody on chip
measured_endpoint: Kd

- binder: "AB-007039 (antibody, V domains shown) VH: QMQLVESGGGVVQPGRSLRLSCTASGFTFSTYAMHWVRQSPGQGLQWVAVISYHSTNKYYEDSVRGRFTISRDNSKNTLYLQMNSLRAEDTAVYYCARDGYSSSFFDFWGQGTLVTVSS VL: DIQMTQSPSTLSASVGDRVAITCRASQSISRWLAWYQQQPGKAPKLLMSGASVLESGVPSRFSGSGSGTEFTLTISSLQPDDFATYYCQHYNSYSVTFGQGTKVEIK"
  observed_result: "14.7 µM"
- binder: "AB-007034 (antibody, V domains shown) VH: QVQLVESGGGVVQPGRSLRLSCAASGFTFSTYAMHWVRQAPGQGLEWVAVISYHSTNKYYADSVRGRFTISRDNSKNTLYLQMNSLRAEDTAVYYCARDGYSSSFFDFWGQGTLVTVSS VL: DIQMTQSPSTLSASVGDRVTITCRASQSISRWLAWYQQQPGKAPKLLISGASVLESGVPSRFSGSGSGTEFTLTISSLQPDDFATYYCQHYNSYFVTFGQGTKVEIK"
  observed_result: "24.1 µM"
- binder: "AB-007038 (antibody, V domains shown) VH: QMQLVESGGGVVQPGRSLRLSCTASGFTFSTYAMHWVRQSPGQGLQWVAVISYHSTNKYYEDSVRGRFTISRDNSKNTLYLQMNSLRAEDTAVYYCARDGYSSSFFDYWGQGTLVTVSS VL: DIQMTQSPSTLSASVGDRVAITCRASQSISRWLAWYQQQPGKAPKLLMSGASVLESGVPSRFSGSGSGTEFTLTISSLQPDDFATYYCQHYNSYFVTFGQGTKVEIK"
  observed_result: "13.1 µM"
- binder: "AB-007052 (antibody, V domains shown) VH: QMQLVESGGGVVQPGRSLRLSCTASGFTFSTYAMHWVRQSPGQGLQWVAVISYHSNNKYYEDSVRGRFTISRDNSKNTLYLQMNSLRAEDTAVYYCARDGYSSSFFDFWGQGTLVTVSS VL: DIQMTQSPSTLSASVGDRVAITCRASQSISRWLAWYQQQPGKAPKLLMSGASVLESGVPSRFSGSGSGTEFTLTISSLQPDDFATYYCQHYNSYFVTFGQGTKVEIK"
  observed_result: "7.14 µM"
- binder: "AB-007033 (antibody, V domains shown) VH: QMQLVESGGGVVQPGRSLRLSCAASGFTFSTYAMHWVRQAPGQGLEWVAVISYHSTNKYYADSVRGRFTISRDNSKNTLYLQMNSLRAEDTAVYYCARDGYSSSFFDFWGQGTLVTVSS VL: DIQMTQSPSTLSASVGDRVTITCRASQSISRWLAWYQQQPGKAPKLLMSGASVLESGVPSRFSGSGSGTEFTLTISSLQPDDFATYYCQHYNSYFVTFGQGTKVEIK"
  observed_result: "2.58 µM"
